The origin of these recorded values is paper PMC12044326.

Method description: physchem
Type: physicochemical
Readout kind: logP

Chem smiles | Observed result
O=C(c1cccnc1-c1ccncc1)N1CCC(O)(Cc2ccccc2)CC1 | 1.4

====

Experimental target: CYP2C8 (Homo sapiens, UniProt P10632)
Sequence (P10632 1-490): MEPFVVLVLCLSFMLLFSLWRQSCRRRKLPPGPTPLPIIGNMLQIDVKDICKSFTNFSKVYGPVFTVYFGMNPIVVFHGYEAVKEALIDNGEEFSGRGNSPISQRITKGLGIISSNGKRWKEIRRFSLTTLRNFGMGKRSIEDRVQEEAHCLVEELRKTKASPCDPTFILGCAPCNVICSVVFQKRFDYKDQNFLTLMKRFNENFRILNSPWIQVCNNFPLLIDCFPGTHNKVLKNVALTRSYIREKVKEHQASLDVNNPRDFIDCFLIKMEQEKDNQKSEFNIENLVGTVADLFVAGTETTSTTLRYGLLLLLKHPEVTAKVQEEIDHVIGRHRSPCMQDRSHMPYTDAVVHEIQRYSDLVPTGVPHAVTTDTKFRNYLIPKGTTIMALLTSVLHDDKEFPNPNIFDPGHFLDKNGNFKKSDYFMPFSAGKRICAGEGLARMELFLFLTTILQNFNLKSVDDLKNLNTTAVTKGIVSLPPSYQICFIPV
Readout kind: Ki (µM)

Compound | Observed result
O=C(c1cccnc1-c1ccncc1)N1CCC(O)(Cc2ccccc2)CC1 [Soticlestat] | 14.5

====

Experimental target: CYP2C9 (Homo sapiens, UniProt P11712)
Sequence (P11712 whole entry): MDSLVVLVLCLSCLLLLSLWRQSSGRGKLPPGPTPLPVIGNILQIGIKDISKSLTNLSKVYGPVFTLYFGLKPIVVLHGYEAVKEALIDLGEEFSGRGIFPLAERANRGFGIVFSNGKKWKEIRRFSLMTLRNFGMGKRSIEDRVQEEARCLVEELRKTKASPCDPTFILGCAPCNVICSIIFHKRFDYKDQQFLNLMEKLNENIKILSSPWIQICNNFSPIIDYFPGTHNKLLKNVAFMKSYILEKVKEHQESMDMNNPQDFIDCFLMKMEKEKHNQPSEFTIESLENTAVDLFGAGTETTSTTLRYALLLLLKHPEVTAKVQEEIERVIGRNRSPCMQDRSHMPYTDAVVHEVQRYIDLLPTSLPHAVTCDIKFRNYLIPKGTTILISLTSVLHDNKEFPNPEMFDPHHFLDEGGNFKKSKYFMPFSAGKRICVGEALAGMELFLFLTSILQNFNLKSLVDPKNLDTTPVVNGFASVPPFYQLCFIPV
Method description: Reversible CYP inhibition in human liver microsomes
Readout kind: Ki

Chem smiles | Observed result
O=C(c1cccnc1-c1ccncc1)N1CCC(O)(Cc2ccccc2)CC1 | 15.6 µM

====

Experimental target: CYP2C19 (Homo sapiens, UniProt P33261)
Sequence (P33261 whole entry): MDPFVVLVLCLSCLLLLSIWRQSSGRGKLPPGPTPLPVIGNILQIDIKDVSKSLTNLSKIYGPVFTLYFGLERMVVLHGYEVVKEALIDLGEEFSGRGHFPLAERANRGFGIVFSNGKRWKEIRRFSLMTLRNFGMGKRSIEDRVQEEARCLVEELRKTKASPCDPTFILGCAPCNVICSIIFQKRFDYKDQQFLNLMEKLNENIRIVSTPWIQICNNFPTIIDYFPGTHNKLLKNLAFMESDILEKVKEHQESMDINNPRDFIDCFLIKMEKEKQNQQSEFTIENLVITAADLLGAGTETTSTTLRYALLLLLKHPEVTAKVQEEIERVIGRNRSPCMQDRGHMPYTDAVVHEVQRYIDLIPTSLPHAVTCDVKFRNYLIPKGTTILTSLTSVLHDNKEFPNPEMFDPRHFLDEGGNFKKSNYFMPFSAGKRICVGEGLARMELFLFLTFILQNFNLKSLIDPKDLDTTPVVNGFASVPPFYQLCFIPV

Chem smiles | Unit descriptor | Ki
O=C(c1cccnc1-c1ccncc1)N1CCC(O)(Cc2ccccc2)CC1 | µM | 9.5

====

Experimental target: P‐glycoprotein (P‐gp) (Homo sapiens, UniProt P08183)
Construct: Caco-2 cells were obtained from American Type Culture Collection
Sequence (P08183 whole entry): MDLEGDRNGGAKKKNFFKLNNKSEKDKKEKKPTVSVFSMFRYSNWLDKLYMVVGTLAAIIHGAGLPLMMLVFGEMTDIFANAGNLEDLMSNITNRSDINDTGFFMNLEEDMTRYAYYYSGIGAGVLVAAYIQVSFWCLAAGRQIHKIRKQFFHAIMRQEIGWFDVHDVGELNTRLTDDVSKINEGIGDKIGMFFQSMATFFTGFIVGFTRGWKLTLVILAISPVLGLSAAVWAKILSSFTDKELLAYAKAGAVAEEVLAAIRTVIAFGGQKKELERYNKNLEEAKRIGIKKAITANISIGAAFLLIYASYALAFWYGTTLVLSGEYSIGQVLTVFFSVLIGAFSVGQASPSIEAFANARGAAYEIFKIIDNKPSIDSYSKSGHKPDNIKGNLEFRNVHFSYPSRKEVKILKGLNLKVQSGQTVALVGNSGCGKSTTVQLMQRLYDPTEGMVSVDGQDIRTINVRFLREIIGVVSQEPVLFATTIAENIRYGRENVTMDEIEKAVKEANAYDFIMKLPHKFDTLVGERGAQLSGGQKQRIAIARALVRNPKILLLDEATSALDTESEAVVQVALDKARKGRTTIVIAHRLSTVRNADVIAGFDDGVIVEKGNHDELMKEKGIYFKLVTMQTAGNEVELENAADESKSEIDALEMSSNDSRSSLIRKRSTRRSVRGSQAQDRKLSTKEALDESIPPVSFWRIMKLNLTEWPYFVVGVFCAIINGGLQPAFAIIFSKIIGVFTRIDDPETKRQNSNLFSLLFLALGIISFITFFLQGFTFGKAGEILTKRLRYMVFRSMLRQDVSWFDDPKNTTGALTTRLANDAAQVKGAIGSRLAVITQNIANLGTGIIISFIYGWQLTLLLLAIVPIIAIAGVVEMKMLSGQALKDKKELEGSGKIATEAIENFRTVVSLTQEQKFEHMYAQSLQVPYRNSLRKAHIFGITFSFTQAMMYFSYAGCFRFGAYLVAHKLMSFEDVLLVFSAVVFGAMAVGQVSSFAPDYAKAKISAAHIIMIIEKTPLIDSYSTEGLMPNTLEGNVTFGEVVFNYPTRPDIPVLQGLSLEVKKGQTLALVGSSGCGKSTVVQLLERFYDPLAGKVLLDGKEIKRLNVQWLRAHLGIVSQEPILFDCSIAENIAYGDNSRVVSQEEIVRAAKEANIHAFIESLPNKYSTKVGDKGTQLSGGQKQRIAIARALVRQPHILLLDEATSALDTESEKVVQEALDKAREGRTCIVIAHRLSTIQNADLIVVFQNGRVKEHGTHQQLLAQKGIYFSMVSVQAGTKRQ
pKi: −log10 of the molar value.
Readout kind: pKi

Chem smiles | Readout kind | Observed result
O=C(c1cccnc1-c1ccncc1)N1CCC(O)(Cc2ccccc2)CC1 | pKi | 4.10

====

Experimental target: P‐glycoprotein (P‐gp) (Homo sapiens)
Construct: Caco-2 cells were obtained from American Type Culture Collection; host or cells: Caco-2 cell monolayers
Assay type: in vitro ADME

Chem smiles | IC50
O=C(c1cccnc1-c1ccncc1)N1CCC(O)(Cc2ccccc2)CC1 | 81.1 µM

====

Entries and their Papp values follow.
Method description: in vitro
Setup conditions: human, Caco-2

Molecule | Papp
CC(C)NCC(O)COc1cccc2ccccc12 (centres unmarked) [propranolol, reference compound] | 27.8 ×10⁻⁶ cm/s
O=C(c1cccnc1-c1ccncc1)N1CCC(O)(Cc2ccccc2)CC1 | 23.4 ×10⁻⁶ cm/s

====

Method description: in vitro
Format: in vitro ADME

Chem smiles | fraction unbound
O=C(c1cccnc1-c1ccncc1)N1CCC(O)(Cc2ccccc2)CC1 | 0.066
